Cited source: patent US20210347873A1

Let's look at some binders and their measured OD450 nm (as headed), mouse B lymphocyte proliferation; antibody 0.8 nM.
# tgt: extracellular domain of human BLyS protein (hBLyS-ECD), His-tagged, Ala134-Leu285 (human, UniProt Q9Y275 134-285)
# Sequence (Q9Y275 134-285): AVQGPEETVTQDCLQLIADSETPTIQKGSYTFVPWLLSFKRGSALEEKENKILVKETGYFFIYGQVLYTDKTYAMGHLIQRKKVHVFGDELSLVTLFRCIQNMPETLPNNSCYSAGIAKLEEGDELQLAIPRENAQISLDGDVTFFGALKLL
# assay-explanation: cell-based or functional assay
Please reply with the value in numeric form only.

A selection of reference data follows.
>>> measured_value("c67A2E1D10 (antibody, V domains shown) VH: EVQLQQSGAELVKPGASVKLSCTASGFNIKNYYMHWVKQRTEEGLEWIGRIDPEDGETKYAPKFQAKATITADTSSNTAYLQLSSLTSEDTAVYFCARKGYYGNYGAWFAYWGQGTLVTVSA VL: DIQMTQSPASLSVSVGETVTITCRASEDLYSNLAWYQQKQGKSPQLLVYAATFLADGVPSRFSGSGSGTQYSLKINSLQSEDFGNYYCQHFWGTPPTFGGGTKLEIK")
3970
>>> measured_value("c97A3C2H4 (antibody, V domains shown, also called chimeric antibody c97A3C2H4) VH: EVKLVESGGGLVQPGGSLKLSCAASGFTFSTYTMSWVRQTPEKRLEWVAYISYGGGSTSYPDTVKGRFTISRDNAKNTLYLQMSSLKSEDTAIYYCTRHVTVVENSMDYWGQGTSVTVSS VL: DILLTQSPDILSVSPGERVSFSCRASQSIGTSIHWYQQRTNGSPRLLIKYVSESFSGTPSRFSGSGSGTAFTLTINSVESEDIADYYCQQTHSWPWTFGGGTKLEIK")
1460

Now examine the next entry.
I would be grateful if you could share the reported OD450 nm (as headed), mouse B lymphocyte proliferation; antibody 0.8 nM for c93C6F10D3 (antibody, V domains shown) VH: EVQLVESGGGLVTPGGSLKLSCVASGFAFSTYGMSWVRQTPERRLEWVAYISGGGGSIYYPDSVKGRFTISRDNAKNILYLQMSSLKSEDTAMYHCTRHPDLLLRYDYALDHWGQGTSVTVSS VL: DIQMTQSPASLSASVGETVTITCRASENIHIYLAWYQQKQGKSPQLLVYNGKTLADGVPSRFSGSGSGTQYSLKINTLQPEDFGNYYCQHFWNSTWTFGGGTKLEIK .
1090
